Test system: Human immunodeficiency virus 1
Assay: Antiviral activity against lamivudine resistant HIV-1 harboring RT M184V mutant infected in human TZM-bl cells incubated for 48 hrs by steady glo reagent based […] luminometer analysis
Format: functional, organism-based
Settings: Human immunodeficiency virus 1, TZM-bl
pEC50: −log10 of the molar value.
# reported pEC50; entries follow

Compound	Result Comparator	pEC50
O=c1[nH]cnc2c1ncn2[C@H]1CC[C@@H](CO)O1	=	5.15
Nc1ccn([C@@H]2CS[C@H](CO)O2)c(=O)n1	<	4.00
CCCC(CC)OC(=O)[C@H](C)N[P@](=O)(OC[C@H]1O[C@@H](n2cnc3c(N)ncnc32)[C@@H]([Se]C)[C@@H]1O)Oc1ccccc1 (some centres undefined)	=	5.36
C[Se][C@H]1[C@H](O)[C@@H](COP(=O)(N[C@@H](C)C(=O)OC(C)C)Oc2ccccc2)O[C@H]1n1cnc2c(N)ncnc21 (some centres undefined)	=	5.17

The origin of these recorded values is ChEMBL document CHEMBL5576091.
